- target_under_test: F508delCFTR (Homo sapiens, UniProt P13569, DEL508-508)
- Construct: expressed in transfected cells; host or cells: CFBE41o- human lung-derived epithelial cells (CFBE4lo-F508delCFTR-HRP), doxycycline-inducible
- Sequence (P13569 with tags, fused parts or gaps DEL508-508): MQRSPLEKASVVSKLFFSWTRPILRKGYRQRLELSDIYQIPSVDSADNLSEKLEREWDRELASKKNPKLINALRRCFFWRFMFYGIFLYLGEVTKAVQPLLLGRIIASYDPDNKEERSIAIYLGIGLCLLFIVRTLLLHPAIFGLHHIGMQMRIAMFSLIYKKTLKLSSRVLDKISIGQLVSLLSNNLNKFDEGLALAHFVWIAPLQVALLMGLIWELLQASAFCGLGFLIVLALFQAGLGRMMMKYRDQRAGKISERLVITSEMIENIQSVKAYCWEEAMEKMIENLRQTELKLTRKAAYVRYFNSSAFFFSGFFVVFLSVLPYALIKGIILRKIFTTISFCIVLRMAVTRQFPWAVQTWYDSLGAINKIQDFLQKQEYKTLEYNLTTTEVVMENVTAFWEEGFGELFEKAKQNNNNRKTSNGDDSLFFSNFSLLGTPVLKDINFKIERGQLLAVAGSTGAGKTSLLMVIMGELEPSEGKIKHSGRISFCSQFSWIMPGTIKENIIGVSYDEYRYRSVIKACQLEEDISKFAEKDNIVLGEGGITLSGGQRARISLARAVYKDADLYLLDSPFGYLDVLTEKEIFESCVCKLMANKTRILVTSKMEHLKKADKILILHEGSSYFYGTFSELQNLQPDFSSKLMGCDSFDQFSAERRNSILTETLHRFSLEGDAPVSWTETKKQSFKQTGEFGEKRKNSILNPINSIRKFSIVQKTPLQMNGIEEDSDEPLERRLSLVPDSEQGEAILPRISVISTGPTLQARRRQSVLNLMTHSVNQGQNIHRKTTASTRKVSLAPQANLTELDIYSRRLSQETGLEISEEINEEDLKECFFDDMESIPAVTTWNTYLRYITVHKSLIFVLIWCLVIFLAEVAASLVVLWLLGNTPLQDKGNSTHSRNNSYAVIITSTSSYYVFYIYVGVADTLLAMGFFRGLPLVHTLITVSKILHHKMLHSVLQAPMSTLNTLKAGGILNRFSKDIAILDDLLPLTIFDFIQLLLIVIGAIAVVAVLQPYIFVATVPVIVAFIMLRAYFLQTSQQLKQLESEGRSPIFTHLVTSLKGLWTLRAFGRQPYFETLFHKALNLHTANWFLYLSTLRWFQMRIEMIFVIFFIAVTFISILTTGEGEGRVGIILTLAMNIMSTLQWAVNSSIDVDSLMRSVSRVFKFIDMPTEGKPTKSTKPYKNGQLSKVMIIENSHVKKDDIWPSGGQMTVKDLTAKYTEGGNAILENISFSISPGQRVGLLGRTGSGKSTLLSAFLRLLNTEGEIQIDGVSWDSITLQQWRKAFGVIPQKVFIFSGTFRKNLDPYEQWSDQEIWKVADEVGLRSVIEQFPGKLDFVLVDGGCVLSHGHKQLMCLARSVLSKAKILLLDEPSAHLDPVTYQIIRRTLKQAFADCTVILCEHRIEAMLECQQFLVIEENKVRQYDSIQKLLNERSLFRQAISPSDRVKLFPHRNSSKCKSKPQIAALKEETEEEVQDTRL
- method_summary: Cell Surface Expression-Horse Radish Peroxidase (CSE-HRP) Assay
- Type: cell-based
- recorded_conditions: with co-corrector (2 μM of 3-[(2R,4R)-4-({[1-(2,2-difluoro-1,3-benzodioxol-5-yl)cyclopropyl]carbonyl}amino)-7-methoxy-3,4-dihydro-2H-chromen-2-yl]benzoic acid); read-out: EC50 (with co-corrector)
pEC50: −log10 of the molar value.
Below, each of the molecules is paired with its reported pEC50 value.

Solved entries (count: 10):
COc1ccc(-n2ncc(C(=O)N3[C@H](C(=O)O)[C@@H](C(C)(C)C)[C@H](NCc4cc(C(C)(C)C)ccc4OC)[C@@H]3c3ccccc3)c2C)cc1 [II-357] :: > 6.00
COc1ccc(C2(C)CCC2)cc1CN[C@H]1[C@H](C(C)(C)C)[C@@H](C(=O)O)N(C(=O)[C@@H]2CCCO2)[C@H]1c1ccccc1C1CC1 [Example 112] :: > 6.00
COc1ccc(Cl)cc1CN[C@H]1[C@H](C(C)(C)C)[C@@H](C(=O)O)N(C(=O)OC(C)C)[C@H]1c1cccnc1N(C)C [II-568] :: 5.00 to 6.00
COc1ncc(C2CCC2)cc1CN[C@H]1[C@H](C(C)(C)C)[C@@H](C(=O)O)N(C(=O)OC(C)C)[C@H]1c1ccccc1 [Example I-214] :: 5.00 to 6.00
COc1ccc(C(F)(F)F)cc1CN[C@H]1[C@H](C(C)(C)C)[C@@H](C(=O)O)N(C(=O)C2CCC(C)(C)C2)[C@H]1c1ccccc1 (some centres unmarked) [III-197] :: > 6.00
COc1cc(C(F)(F)F)cc(N[C@@H]2[C@@H](C(C)(C)OC)[C@H](C(=O)O)N(C(=O)C3CCCCC3)[C@@H]2c2ccccc2)n1 (racemic) [Example I-38] :: 5.00 to 6.00
COc1ncc(C2CCC2)cc1CN[C@H]1[C@H](C(C)(C)C)[C@@H](C(=O)O)N(C(=O)OC(C)C)[C@H]1c1cccnc1OC(C)C [Example 87] :: 5.00 to 6.00
COc1ncc(C(F)(F)F)cc1CN[C@H]1[C@H](C(C)(C)C)[C@@H](C(=O)O)N(C(=O)C2CCC(F)(F)C2)[C@H]1c1ccccc1C(C)C (some centres unmarked) [II-589] :: > 6.00
COc1ccc(C(C)(C)C)cc1CN[C@H]1[C@H](C(C)(C)C)[C@@H](C(=O)O)N(C(=O)C2CCCC(C)C2)[C@H]1c1ccccc1 (some centres unmarked) [III-175] :: > 6.00
COc1ncc(C(F)(F)F)cc1CN[C@H]1[C@H](C(C)(C)OC)[C@@H](C(=O)O)N(C(=O)C2CCCCC2)[C@H]1c1ccccc1 [Example 22] :: > 6.00

In the following, a different molecule is considered.
Noted pEC50 for COc1ncc(C2CCC2)cc1CN[C@H]1[C@H](C(C)(C)C)[C@@H](C(=O)O)N(C(=O)OC(C)C)[C@H]1c1cccnc1N(C)C [III-224] , tested on F508delCFTR (Homo sapiens, UniProt P13569, DEL508-508): 5.00 to 6.00
